Recorded IC50 values for a group of compounds are listed next.
# target entity: ErbB2 with Exon 20 YVMA insertion (HER2-YVMA) (Homo sapiens (Human), UniProt P04626, INS775YVMA)
# Sequence (P04626 other isoform, or with tags, fused parts or gaps ins YVMA behind 775): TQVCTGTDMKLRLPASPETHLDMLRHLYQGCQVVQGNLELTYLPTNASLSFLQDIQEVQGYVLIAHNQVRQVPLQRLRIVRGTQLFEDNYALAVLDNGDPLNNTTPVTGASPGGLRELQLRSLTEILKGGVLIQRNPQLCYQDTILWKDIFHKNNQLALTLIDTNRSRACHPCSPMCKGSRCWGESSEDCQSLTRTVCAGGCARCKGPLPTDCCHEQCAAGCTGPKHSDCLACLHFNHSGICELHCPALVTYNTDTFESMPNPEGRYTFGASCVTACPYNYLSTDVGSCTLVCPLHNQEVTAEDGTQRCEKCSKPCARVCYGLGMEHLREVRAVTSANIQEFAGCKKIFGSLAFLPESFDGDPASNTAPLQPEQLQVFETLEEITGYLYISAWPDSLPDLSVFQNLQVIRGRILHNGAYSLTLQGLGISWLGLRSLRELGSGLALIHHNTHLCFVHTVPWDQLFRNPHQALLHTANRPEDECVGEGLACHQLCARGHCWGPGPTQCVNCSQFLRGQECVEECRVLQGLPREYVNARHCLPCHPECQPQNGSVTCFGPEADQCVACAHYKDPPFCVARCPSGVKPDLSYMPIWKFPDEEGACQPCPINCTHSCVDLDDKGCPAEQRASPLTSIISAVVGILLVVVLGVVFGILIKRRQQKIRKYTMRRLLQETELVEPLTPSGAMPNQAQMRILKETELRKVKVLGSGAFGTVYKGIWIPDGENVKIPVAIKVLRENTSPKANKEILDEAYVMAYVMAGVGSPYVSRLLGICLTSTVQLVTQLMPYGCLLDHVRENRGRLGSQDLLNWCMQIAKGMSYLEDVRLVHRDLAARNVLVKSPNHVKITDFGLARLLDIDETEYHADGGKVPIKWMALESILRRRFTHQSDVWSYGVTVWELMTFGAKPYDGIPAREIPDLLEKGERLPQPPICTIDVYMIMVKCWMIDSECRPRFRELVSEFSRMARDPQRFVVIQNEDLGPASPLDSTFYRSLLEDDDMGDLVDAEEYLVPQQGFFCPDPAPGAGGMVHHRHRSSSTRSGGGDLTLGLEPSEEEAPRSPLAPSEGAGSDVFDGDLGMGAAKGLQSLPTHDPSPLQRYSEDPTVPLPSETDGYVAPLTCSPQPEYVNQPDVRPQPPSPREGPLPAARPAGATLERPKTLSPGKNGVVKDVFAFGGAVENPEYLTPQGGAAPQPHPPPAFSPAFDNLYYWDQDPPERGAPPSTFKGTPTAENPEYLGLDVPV
# assay info: Cellular phosphorylation assay, constitutive ErbB2 phosphorylation (Y1196) in engineered NIH 3T3 cells, Assay 4
Field note: include the unit after the figure.

{"compound": "Cc1cc(Nc2ncnc3cnc(N4CC(C)CS4(=O)=O)nc23)ccc1Oc1ccc2c(c1)ncn2C (stereo not drawn)", "result": "8.1 nM"}
{"compound": "Cc1cc(Nc2ncnc3cnc(O[C@H]4CN(C)CC[C@H]4F)nc23)ccc1Oc1ccc2c(c1)ncn2C", "result": "81.2 nM"}
{"compound": "Cc1cc(Nc2ncnc3cnc(N4C5CCC4COC5)nc23)ccc1Oc1ccc2c(c1)ncn2C", "result": "23.5 nM"}

Here is another compound to look at.
Could you share which IC50 value was measured for `Cc1cc(Nc2ncnc3cnc(N4C5CCC4COC5)nc23)ccc1Oc1ccn2ncnc2c1` ?
538 nM

* * *

A short record of IC50 observed with EGFR (Homo sapiens (Human), UniProt P00533) follows.
Sequence (P00533 25-1210): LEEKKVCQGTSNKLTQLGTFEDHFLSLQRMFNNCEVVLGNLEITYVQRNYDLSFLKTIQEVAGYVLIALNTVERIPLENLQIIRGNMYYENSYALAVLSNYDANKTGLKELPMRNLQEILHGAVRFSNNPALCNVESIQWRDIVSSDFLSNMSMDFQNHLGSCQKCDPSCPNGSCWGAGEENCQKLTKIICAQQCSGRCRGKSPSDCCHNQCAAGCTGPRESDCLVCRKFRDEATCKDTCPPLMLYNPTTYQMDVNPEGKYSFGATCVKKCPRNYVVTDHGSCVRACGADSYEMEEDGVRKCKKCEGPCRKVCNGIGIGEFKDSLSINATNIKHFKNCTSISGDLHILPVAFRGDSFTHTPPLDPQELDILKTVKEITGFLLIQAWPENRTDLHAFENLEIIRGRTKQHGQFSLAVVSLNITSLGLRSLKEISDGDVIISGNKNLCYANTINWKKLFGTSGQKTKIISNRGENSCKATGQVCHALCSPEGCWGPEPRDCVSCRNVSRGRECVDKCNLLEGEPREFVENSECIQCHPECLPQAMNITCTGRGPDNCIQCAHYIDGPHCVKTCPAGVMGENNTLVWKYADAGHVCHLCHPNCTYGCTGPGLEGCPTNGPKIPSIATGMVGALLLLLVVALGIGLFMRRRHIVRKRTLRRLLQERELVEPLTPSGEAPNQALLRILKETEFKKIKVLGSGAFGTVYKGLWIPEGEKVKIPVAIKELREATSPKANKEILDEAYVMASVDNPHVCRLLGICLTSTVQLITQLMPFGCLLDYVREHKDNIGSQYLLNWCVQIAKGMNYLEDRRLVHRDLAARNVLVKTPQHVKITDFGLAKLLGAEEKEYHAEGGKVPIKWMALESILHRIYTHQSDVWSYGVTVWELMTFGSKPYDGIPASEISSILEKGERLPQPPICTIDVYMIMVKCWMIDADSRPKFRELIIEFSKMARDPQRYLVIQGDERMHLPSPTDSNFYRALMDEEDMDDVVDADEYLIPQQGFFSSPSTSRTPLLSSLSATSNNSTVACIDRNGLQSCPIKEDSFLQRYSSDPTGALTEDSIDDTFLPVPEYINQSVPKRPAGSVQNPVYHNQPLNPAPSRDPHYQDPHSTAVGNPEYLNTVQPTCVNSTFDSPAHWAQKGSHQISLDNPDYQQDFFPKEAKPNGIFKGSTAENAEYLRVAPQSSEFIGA
Please reply with the bare figure in µM and do not write the unit itself.

{"smiles record": "Cc1cc(Nc2ncnc3cnc(S(C)(=O)=O)nc23)ccc1Oc1ccc2c(c1)ncn2C", "measurement name": "IC50", "result": 4.64}

Missing value: IC50, EGFR (Homo sapiens (Human), UniProt P00533), entry `Cc1cc(Nc2ncnc3cnc(NCC(F)F)nc23)ccc1Oc1ccc2c(c1)ncn2C` . Fill in?
1.8

Provide value of IC50 for this record tested with EGFR (Homo sapiens (Human), UniProt P00533): `Cc1cc(Nc2ncnc3cnc(N4CCC45COC5)nc23)ccc1Oc1cc(F)c2c(c1)ncn2C`
2.36

Reported IC50 for EGFR (Homo sapiens (Human), UniProt P00533), given `C[C@H]1CN(c2ncc3ncnc(Nc4ccc(Oc5ccc6c(c5)ncn6C)c(Cl)c4)c3n2)CCO1` ?
4.01

Field: IC50 (EGFR (Homo sapiens (Human), UniProt P00533)). Entry: `Cc1cc(Nc2ncnc3cnc(N(C)[C@@H]4CCC[C@H]4O)nc23)ccc1Oc1ccc2c(c1)ncn2C`
4.57

* * *

# IC50 per record follows
# target entity: EGFR (Homo sapiens (Human))

Some solved entries appear below for comparison.
{"molecule": "Cc1cc(Nc2ncnc3cnc(N4CCO[C@H]5C[C@H]54)nc23)ccc1Oc1ccc2c(c1)ncn2C (single isomer, unassigned) [Example 60b]", "IC50": "5.68 µM"}
{"molecule": "Cc1cc(Nc2ncnc3cnc(N(C)[C@@H]4CNC[C@@H]4F)nc23)ccc1Oc1ccc2c(c1)ncn2C", "IC50": "4.36 µM"}
{"molecule": "Cc1cc(Nc2ncnc3cnc(N4CC5(C4)CC(C)(O)C5)nc23)ccc1Oc1ccc2c(c1)ncn2C", "IC50": "≥ 10 µM"}
{"molecule": "Cc1cc(Nc2ncnc3cnc(N4CCC(F)(F)CC4)nc23)ccc1Oc1ccc2c(c1)ncn2C", "IC50": "≥ 10 µM"}
{"molecule": "Cc1cc(Nc2ncnc3cnc(O[C@H]4CN(C)C[C@H]4F)nc23)ccc1Oc1ccc2c(c1)ncn2C", "IC50": "≥ 10 µM"}

Please report the recorded IC50 for Cc1cc(Nc2ncnc3cnc(N(C)CC4CCO4)nc23)ccc1Oc1ccc2c(c1)ncn2C (stereo not shown) .
≥ 10 µM

Look up IC50: `Cc1cc(Nc2ncnc3cnc(O[C@@H]4CNC[C@H](F)C4)nc23)ccc1Oc1ccc2c(c1)ncn2C`
≥ 10 µM

* * *

# target entity: ErbB2 with Exon 20 YVMA insertion (HER2-YVMA) (Homo sapiens (Human), UniProt P04626, INS775YVMA)
# assay info: Cellular phosphorylation assay, constitutive ErbB2 phosphorylation (Y1196) in engineered NIH 3T3 cells, Assay 4
measurement name: pIC50
Please note pIC50 is a logarithmic value: minus log10 of concentration in mol/L. Answer with that number alone.

# count of solved cases: 3
{"compound": "CN(CCC(C)(C)O)c1ncc2ncnc(Nc3ccc(Oc4ccn5ncnc5c4)c(Cl)c3)c2n1", "pIC50": 8.09}
{"compound": "Cc1ncc(-c2ncc3ncnc(Nc4ccc(Oc5ccc6c(c5)ncn6C)c(C)c4)c3n2)s1", "pIC50": 7.77}
{"compound": "Cc1cc(Nc2ncnc3cnc(N4CCC5COCC54)nc23)ccc1Oc1ccc2c(c1)ncn2C (stereo not shown)", "pIC50": 8.12}

Report pIC50 for `Cc1cc(Nc2ncnc3cnc(N(C)[C@H]4CCCOC4)nc23)ccc1Oc1ccn2ncnc2c1` please.
6.94

If you can, please state the reported pIC50 value of `Cc1c(Oc2ccc3c(c2)ncn3C)ccc(Nc2ncnc3cnc(N(C)CC(C)(C)O)nc23)c1F` .
6.87

Requested field: pIC50. Item: `Cc1cc(Nc2ncnc3cnc(N(C)[C@@H]4CCOC4)nc23)ccc1Oc1ccn2ncnc2c1`
6.92

Name the recorded pIC50 for `Cc1cc(Nc2ncnc3cnc(N(C)CCO)nc23)ccc1Oc1ccc2c(c1)ncn2C` .
8.22

Look up pIC50: `Cc1cc(Nc2ncnc3cnc(N4CC[C@]45CCOC5)nc23)ccc1Oc1ccn2ncnc2c1`
6.67

Item under review: `Cc1cc(Nc2ncnc3cnc(N4CCC5(CCO5)CC4)nc23)ccc1Oc1ccc2c(c1)ncn2C` . Reported pIC50?
7.73

What does the record list as pIC50 for `Cc1cc(Nc2ncnc3cnc(N4C[C@@H]5C[C@H]4C[C@@H]5O)nc23)ccc1Oc1ccc2c(c1)ncn2C` ?
7.61

Data request, read-out pIC50, for `Cc1cc(Nc2ncnc3cnc(N4CC[C@H](C(C)(C)O)C4)nc23)ccc1Oc1ccc2c(c1)ncn2C`
7.84

Sample `Cc1cc(Nc2ncnc3cnc(N4CCCO4)nc23)ccc1Oc1cc(F)c2c(c1)ncn2C` — what was its pIC50?
8.26

# get_value(readout='pIC50', item= `[2H]c1nc(Nc2ccc(Oc3ccc4c(c3)ncn4C)c(C)c2)c2nc(N3CCOCC3)nc([2H])c2n1` )
7.97

Recorded pIC50 of `Cc1cc(Nc2ncnc3cnc(N(C)CC(C)(C)O)nc23)ccc1Oc1cc(F)c2c(c1)ncn2C` , please.
8.08

Record request: pIC50 value, item `Cc1cc(Nc2ncnc3cnc(N4CCN(C)[C@H](C)C4)nc23)ccc1Oc1ccn2ncnc2c1`
6.50

Can you share its pIC50? I mean this compound: `Cc1cc(Nc2ncnc3cnc(N4CCN[C@H](C(F)(F)F)C4)nc23)ccc1Oc1ccc2c(c1)ncn2C`
7.58

* * *

pIC50: −log10 of the molar value.
EGFR (Homo sapiens (Human), UniProt P00533) pIC50 data

Solved entries:
{"molecule": "COCCOC1CN(c2ncc3ncnc(Nc4ccc(Oc5ccc6c(c5)ncn6C)c(C)c4)c3n2)C1", "pIC50": "≤ 5.00"}
{"molecule": "Cc1cnc(-c2ncc3ncnc(Nc4ccc(Oc5ccc6c(c5)ncn6C)c(C)c4)c3n2)s1", "pIC50": "≤ 5.00"}
{"molecule": "Cn1cnc2cc(Oc3ccc(Nc4ncnc5cnc(N6C[C@@H]7C[C@H]6CO7)nc45)cc3Cl)ccc21", "pIC50": "≤ 5.00"}
{"molecule": "Cc1cc(Nc2ncnc3cnc(N4CCOCC4)nc23)ccc1Oc1ccc2csnc2c1", "pIC50": 5.60}

Form entry - test system: EGFR (Homo sapiens (Human), UniProt P00533); read-out: pIC50; molecule: COc1ncc2ncnc(Nc3ccc(Oc4ccc5csnc5c4)c(C)c3)c2n1 [Example 7, 2,2,2-trifluoroacetate]
5.70

API: value(readout=pIC50, system=EGFR (Homo sapiens (Human), UniProt P00533)) for record `Cc1cc(Nc2ncnc3cnc(N(C)CC(C)(C)O)nc23)ccc1Oc1ccc2c(c1)ncn2C`
5.35

Missing value: pIC50, EGFR (Homo sapiens (Human), UniProt P00533), entry `Cc1cc(Nc2ncnc3cnc(N4CCOCC4)nc23)ccc1Oc1ccn2ncnc2c1` . Fill in?
≤ 5.00

Test system EGFR (Homo sapiens (Human), UniProt P00533); read-out pIC50; what value for `FC(F)O[C@@H]1CCN(c2ncc3ncnc(Nc4ccc(Oc5ccn6ncnc6c5)c(Cl)c4)c3n2)C1` ?
≤ 5.00

# returns recorded pIC50 (system: EGFR (Homo sapiens (Human), UniProt P00533)) for `N#CC[C@@H]1CCN(c2ncc3ncnc(Nc4ccc(Oc5ccn6ncnc6c5)c(Cl)c4)c3n2)C1`
5.65

Lab note: need pIC50 with EGFR (Homo sapiens (Human), UniProt P00533) for entry `Cc1c(Oc2ccc3c(c2)ncn3C)ccc(Nc2ncnc3cnc(N4CC[C@H]4C(C)(C)O)nc23)c1F` , please look it up.
≤ 5.00

What is its pIC50 for EGFR (Homo sapiens (Human), UniProt P00533)? Entry: `Cc1cc(Nc2ncnc3cnc(O[C@H]4CCN(C)C[C@H]4F)nc23)ccc1Oc1ccc2c(c1)ncn2C`
≤ 5.00

Form entry - test system: EGFR (Homo sapiens (Human), UniProt P00533); read-out: pIC50; molecule: `Cc1cc(Nc2ncnc3cnc(N4CCOC[C@H]4C)nc23)ccc1Oc1ccc2c(c1)ncn2C`
5.48

Test system EGFR (Homo sapiens (Human), UniProt P00533); read-out pIC50; what value for `Cn1cnc2cc(Oc3ccc(Nc4ncnc5cnc(N6CCN[C@H](C(F)(F)F)C6)nc45)cc3Cl)ccc21` ?
5.35

For the record `Cc1cc(Nc2ncnc3cnc(OCC(C)(C)O)nc23)ccc1Oc1ccc2c(c1)ncn2C` , what value of pIC50 is listed for EGFR (Homo sapiens (Human), UniProt P00533)?
≤ 5.00

What pIC50 appears in the records for this molecule with EGFR (Homo sapiens (Human), UniProt P00533)? Cc1c(Oc2ccc3c(c2)ncn3C)ccc(Nc2ncnc3cnc(N4CC5CC5(O)C4)nc23)c1F (stereo not shown)
≤ 5.00

Which pIC50 is reported with EGFR (Homo sapiens (Human), UniProt P00533) for this entry: `Cc1c(Oc2ccc3c(c2)ncn3C)ccc(Nc2ncnc3cnc(N4CCOCC4)nc23)c1F` ?
≤ 5.00

Values from patent US11834453B2
